Provide the reported pEC50 of each item.
Target: UniProt:P41143
Sequence (P41143 whole entry): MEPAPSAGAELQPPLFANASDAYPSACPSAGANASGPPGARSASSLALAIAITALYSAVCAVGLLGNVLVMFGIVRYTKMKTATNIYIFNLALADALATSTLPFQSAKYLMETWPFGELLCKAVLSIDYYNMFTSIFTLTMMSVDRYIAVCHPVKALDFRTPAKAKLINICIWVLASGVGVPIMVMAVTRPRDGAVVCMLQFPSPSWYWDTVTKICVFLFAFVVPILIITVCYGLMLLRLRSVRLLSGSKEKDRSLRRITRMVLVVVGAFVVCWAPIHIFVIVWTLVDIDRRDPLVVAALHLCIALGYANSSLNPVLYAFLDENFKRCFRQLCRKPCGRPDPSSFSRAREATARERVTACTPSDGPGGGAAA
Assay: EPAC cAMP BRET-based biosensor assay, DOP
Non-standard residues stand in square brackets, D forms with d. Residues, ends and D or L forms follow the SMILES beside them. Dmt = Cc1cc(O)cc(C)c1C[C@H](N)C(=O)O
Worth noting: pEC50 values are minus log10 of concentrations stated in mol/L.

Give its pEC50 value. Item: "C=Cc1ccccc1C[C@H](NC(=O)[C@@H](C)N(C)C(=O)[C@@H](N)Cc1c(C)cc(O)cc1C)C(=O)NCC(N)=O"
8.36

Would you kindly repeat that for Cc1cc(O)cc(C)c1C[C@H](N)C(=O)N[C@H](CCCNC(=N)N)C(=O)N[C@@H](Cc1ccccc1)C(=O)NCC(N)=O [Compound 19, Dmt-D-Arg-Phe-Gly-NH2] (H-[Dmt][dR]FG-NH2) ?
8.95

Would you kindly repeat that for Cc1cc(O)cc(C)c1C[C@H](N)C(=O)N[C@H](C)C(=O)N[C@@H](Cc1ccccc1)C(=O)NCC(N)=O [Compound 20, Dmt-D-Ala-Phe-Gly-NH2] (H-[Dmt][dA]FG-NH2) ?
8.62

Would you kindly repeat that for "Cc1cc(O)cc(C)c1C[C@H](N)C(=O)N[C@H](CCCNC(=N)N)C(=O)N[C@@H](Cc1ccccc1-c1ccc(C(F)(F)F)cc1)C(=O)NCC(N)=O" ?
7.57
